biological target: Melanocortin receptor 3 (Homo sapiens); assay: Displacement of [125I]-[Nle4,d-Phe7]-alpha-MSH from human MC3R expressed in HEK293 cells after 40 mins by gamma counting analysis
Sequence (P41968 whole entry): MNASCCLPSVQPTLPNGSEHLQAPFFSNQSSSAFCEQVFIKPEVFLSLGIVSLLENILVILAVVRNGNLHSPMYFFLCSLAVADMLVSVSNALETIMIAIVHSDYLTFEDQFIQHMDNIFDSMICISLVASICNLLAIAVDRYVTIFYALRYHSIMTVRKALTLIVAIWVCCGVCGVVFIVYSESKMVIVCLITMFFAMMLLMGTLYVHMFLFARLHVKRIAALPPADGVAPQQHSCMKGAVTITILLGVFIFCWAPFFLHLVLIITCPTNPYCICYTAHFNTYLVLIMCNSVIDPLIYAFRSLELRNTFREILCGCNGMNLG
Square brackets hold non-standard residues; d marks the D form. Peptide text beside a SMILES is read from it. dPhe(4-CF3) = N[C@H](Cc1ccc(C(F)(F)F)cc1)C(=O)O; dPhe(4-Br) = N[C@H](Cc1ccc(Br)cc1)C(=O)O; dPhe(4-Cl) = N[C@H](Cc1ccc(Cl)cc1)C(=O)O; d2Nal = N[C@H](Cc1ccc2ccccc2c1)C(=O)O; Nle = CCCC[C@H](N)C(=O)O
metric: IC50

INSERT INTO measurements (compound, reading) VALUES
  ('CCCC[C@H](NC(=O)[C@@H](Cc1ccccc1)NC(=O)[C@@H]1CCCN1C(C)=O)C(=O)N[C@@H](Cc1c[nH]c2ccccc12)C(N)=O (Ac-P[dF][Nle]W-NH2)', '> 1000 nM'),
  ('CCCC[C@H](NC(=O)[C@@H](Cc1ccc(Br)cc1)NC(=O)[C@@H]1CCCN1C(C)=O)C(=O)N[C@@H](Cc1c[nH]c2ccccc12)C(N)=O (Ac-P[dPhe(4-Br)][Nle]W-NH2)', '> 1000 nM'),
  ('CCCC[C@H](NC(=O)[C@@H](Cc1ccc2ccccc2c1)NC(=O)[C@H](Cc1cnc[nH]1)NC(C)=O)C(=O)N[C@@H](Cc1c[nH]c2ccccc12)C(N)=O (Ac-H[d2Nal][Nle]W-NH2)', '> 1000 nM'),
  ('CCCC[C@H](NC(=O)[C@@H](Cc1ccc(Cl)cc1)NC(=O)[C@@H]1CCCN1C(C)=O)C(=O)N[C@@H](Cc1c[nH]c2ccccc12)C(N)=O (Ac-P[dPhe(4-Cl)][Nle]W-NH2)', '> 1000 nM'),
  ('CCCC[C@H](NC(=O)[C@@H](Cc1ccc(Cl)cc1)NC(=O)[C@H](Cc1cnc[nH]1)NC(C)=O)C(=O)N[C@@H](Cc1c[nH]c2ccccc12)C(N)=O (Ac-H[dPhe(4-Cl)][Nle]W-NH2)', '> 1000 nM'),
  ('CCCC[C@H](NC(=O)[C@@H](Cc1ccc(C(F)(F)F)cc1)NC(=O)[C@@H]1CCCN1C(C)=O)C(=O)N[C@@H](Cc1c[nH]c2ccccc12)C(N)=O (Ac-P[dPhe(4-CF3)][Nle]W-NH2)', '> 1000 nM');

# ---- query compound ----
Retrieve IC50 measured for CCCC[C@H](NC(=O)[C@@H](Cc1ccc(C(F)(F)F)cc1)NC(=O)[C@H](Cc1cnc[nH]1)NC(C)=O)C(=O)N[C@@H](Cc1c[nH]c2ccccc12)C(N)=O (Ac-H[dPhe(4-CF3)][Nle]W-NH2) and print it.
90 nM
